# target system: P450 1A1 (Homo sapiens, UniProt P04798)
# Sequence (P04798 whole entry): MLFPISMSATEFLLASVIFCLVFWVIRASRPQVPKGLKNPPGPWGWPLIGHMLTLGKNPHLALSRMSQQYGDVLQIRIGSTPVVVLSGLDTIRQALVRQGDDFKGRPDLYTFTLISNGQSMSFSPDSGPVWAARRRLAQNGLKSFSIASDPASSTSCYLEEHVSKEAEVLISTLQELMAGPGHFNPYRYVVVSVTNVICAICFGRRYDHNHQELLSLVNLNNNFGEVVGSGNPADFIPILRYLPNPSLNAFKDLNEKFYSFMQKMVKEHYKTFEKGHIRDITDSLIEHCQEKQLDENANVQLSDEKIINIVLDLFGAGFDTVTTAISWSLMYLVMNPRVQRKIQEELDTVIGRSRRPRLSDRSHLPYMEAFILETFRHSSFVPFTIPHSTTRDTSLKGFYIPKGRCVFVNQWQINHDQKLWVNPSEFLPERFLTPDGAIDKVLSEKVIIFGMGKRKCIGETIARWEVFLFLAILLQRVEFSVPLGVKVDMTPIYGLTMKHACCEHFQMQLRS
# assay name: Time-dependent inhibition kinetics of P450 1A1
# Assay type: biochemical
# details: read-out: limiting kinact
measurement kind: kinact (s⁻¹)

C#Cc1ccc(-c2cc(=O)c3ccccc3o2)cc1 = 0.0055
C#Cc1cccc(-c2cc(=O)c3ccccc3o2)c1 = 0.00767
C#Cc1ccc2c(=O)cc(-c3ccccc3)oc2c1 = 0.007

[I] C#Cc1ccc2oc(-c3ccccc3)cc(=O)c2c1
[II] C#Cc1cccc2oc(-c3ccccc3)cc(=O)c12
Request: Between the two listed entries I and II , which has its kinact at the higher number? // respond with label for picked entry
Response: I
(I: 0.0055 s⁻¹, II: 0.0011 s⁻¹)

The measured values listed here are drawn from paper PMC4137986.
